Assay: PET test using normal cynomolgus monkey (heart contrast PET, SUV in myocardium and bone ROI)
Type: in vivo
Details: male normal cynomolgus monkey, about 300 MBq i.v., ROI myocardium, 20-minute section ending 120 minutes after administration; Examples 1 case, Reference Example 15 average ± standard error of 3 cases
Can you tell me SUV (myocardium) 120 minutes for the items I'm about to list?
Answers are plain numbers.

Completed entries (count: 5):
Which SUV (myocardium) 120 minutes value belongs to CC/C=C\C/C=C\C/C=C\CC([18F])CCSCCC(=O)O (centres unmarked) ?
3.21

Again, but for CCCCC/C=C\C/C=C\CC([18F])CCSCCC(=O)O (centres unmarked)
2.80

Next entry: CCCCCCCCCC([18F])CCSCCC(=O)O (centres unmarked)
6.74

Now consider CCCCCCCCC1CC1CC([18F])CCSCCC(=O)O (centres unmarked) .
4.80

Same for O=C(O)CCSCCCC/C=C\CCCCCCCC[18F] [Reference Example 15, reference compound]
5.90

Give me SUV (myocardium) 120 minutes for each of these molecules, listed below.
1. CCCCCCCCCCCC([18F])CCSCCC(=O)O (centres unmarked)
2. CCCCCCCCC([18F])CCSCCCCC(=O)O (centres unmarked)
3. CCCCCCCC/C=C/CC([18F])CCSCCC(=O)O (centres unmarked)

1: 4.38; 2: 10.0; 3: 5.16

* * *

Test: PET test using normal cynomolgus monkey (heart contrast PET, SUV in myocardium and bone ROI)
Format: in vivo
Conditions: male normal cynomolgus monkey, about 300 MBq i.v., ROI myocardium, 20-minute section ending 60 minutes after administration; Examples 1 case, Reference Example 15 average ± standard error of 3 cases
metric: SUV (myocardium) 60 minutes
Numbers only.

Some solved entries appear below for comparison.
Which SUV (myocardium) 60 minutes is listed for CCCCCCCC/C=C/CC([18F])CCSCCC(=O)O (stereo not drawn) [Example 5] ?
6.13

What would you report for CCCCCCCCC([18F])CCSCCCCC(=O)O (stereo not drawn) [Example 7] ?
11.4

Shift focus to the following entry.
Field request: SUV (myocardium) 60 minutes | item: CC/C=C\C/C=C\C/C=C\CC([18F])CCSCCC(=O)O (stereo not drawn) [Example 1]
4.13

* * *

Field: SUV (bone) 120 minutes. Provide a value for each of the compounds that follow.
Assay: PET test using normal cynomolgus monkey (heart contrast PET, SUV in myocardium and bone ROI)
Assay type: in vivo
Settings: male normal cynomolgus monkey, about 300 MBq i.v., ROI bone (near the spine), 20-minute section ending 120 minutes after administration; n.d. = target organ cannot be confirmed in the image and ROI cannot be set
Numbers only.

Fill in the blank: the reported SUV (bone) 120 minutes of CC/C=C\C/C=C\C/C=C\CC([18F])CCSCCC(=O)O (stereo not shown) [Example 1] is ____.
0.75

CCCCC/C=C\C/C=C\CC([18F])CCSCCC(=O)O (stereo not shown) [Example 3] ?
2.07

// query: CCCCCCCCCC([18F])CCSCCC(=O)O (stereo not shown) [Example 2]
1.34

Similarly, CCCCCCCCCCCC([18F])CCSCCC(=O)O (stereo not shown) [Example 4] ?
1.27

Hi! Can you tell me SUV (bone) 120 minutes for each of these compounds?
1. O=C(O)CCSCCCC/C=C\CCCCCCCC[18F] [Reference Example 15, reference compound]
2. CCCCCCCCC([18F])CCSCCCCC(=O)O (stereo not shown) [Example 7]
3. CCCCCCCC/C=C/CC([18F])CCSCCC(=O)O (stereo not shown) [Example 5]

1: 3.82; 2: 5.11; 3: 1.28

* * *

Experiment: PET test using normal cynomolgus monkey (heart contrast PET, SUV in myocardium and bone ROI)
Format: in vivo
Conditions: male normal cynomolgus monkey, about 300 MBq i.v., ROI myocardium, 160 to 180 minutes after administration; Examples 1 case, Reference Example 15 average ± standard error of 3 cases
For each of the molecules below, state its SUV (myocardium) 180 minutes.

Suppose we examine the molecule CCCCCCCCC([18F])CCSCCCCC(=O)O (stereo not drawn) ; what SUV (myocardium) 180 minutes value has been reported?
8.44

Below is a list of molecules. For each, state its recorded SUV (myocardium) 180 minutes.
1. CC/C=C\C/C=C\C/C=C\CC([18F])CCSCCC(=O)O (stereo not drawn)
2. CCCCC/C=C\C/C=C\CC([18F])CCSCCC(=O)O (stereo not drawn)

1: 2.80; 2: 2.41

* * *

Assay: PET test using normal cynomolgus monkey (heart contrast PET, SUV in myocardium and bone ROI)
Assay type: in vivo
Details: male normal cynomolgus monkey, about 300 MBq i.v., ROI myocardium, 0 to 20 minutes after administration; Examples 1 case, Reference Example 15 average ± standard error of 3 cases
metric: SUV (myocardium) 20 minutes
One number for each entry.

What does the record list as SUV (myocardium) 20 minutes for CCCCCCCCCCCC([18F])CCSCCC(=O)O (centres unmarked) [Example 4] ?
6.65

Hi, could you look up SUV (myocardium) 20 minutes for each item in my list?
1. CC/C=C\C/C=C\C/C=C\CC([18F])CCSCCC(=O)O (centres unmarked) [Example 1]
2. CCCCCCCCC([18F])CCSCCCCC(=O)O (centres unmarked) [Example 7]
3. O=C(O)CCSCCCC/C=C\CCCCCCCC[18F] [Reference Example 15, reference compound]
4. CCCCCCCCC1CC1CC([18F])CCSCCC(=O)O (centres unmarked) [Example 6]
5. CCCCCCCCCC([18F])CCSCCC(=O)O (centres unmarked) [Example 2]

1: 4.87; 2: 11.6; 3: 6.45; 4: 7.74; 5: 7.40

Hey, quick one: what's SUV (myocardium) 20 minutes for each of these?
1. CCCCC/C=C\C/C=C\CC([18F])CCSCCC(=O)O (centres unmarked) [Example 3]
2. CCCCCCCC/C=C/CC([18F])CCSCCC(=O)O (centres unmarked) [Example 5]

[5.75, 6.84]

* * *

Test: PET test using normal cynomolgus monkey (heart contrast PET, SUV in myocardium and bone ROI)
Type: in vivo
Conditions: male normal cynomolgus monkey, about 300 MBq i.v., ROI bone (near the spine), 20-minute section ending 60 minutes after administration; n.d. = target organ cannot be confirmed in the image and ROI cannot be set
What SUV (bone) 60 minutes was measured for each of the following?
Answers are plain numbers.

Answered examples (6):
Looking for the measured SUV (bone) 60 minutes of CCCCCCCCCCCC([18F])CCSCCC(=O)O (stereo not shown) , can you help?
1.13

CCCCCCCC/C=C/CC([18F])CCSCCC(=O)O (stereo not shown) , same question.
1.36

What do you have for CCCCCCCCC([18F])CCSCCCCC(=O)O (stereo not shown) ?
3.41

Would you mind doing O=C(O)CCSCCCC/C=C\CCCCCCCC[18F] [Reference Example 15, reference compound] as well?
2.27

Can you check CCCCCCCCCC([18F])CCSCCC(=O)O (stereo not shown) next?
1.05

Consider next the compound CC/C=C\C/C=C\C/C=C\CC([18F])CCSCCC(=O)O (stereo not shown) in the same way.
0.69

// moving on: another record for SUV (bone) 60 minutes
Look up SUV (bone) 60 minutes for this compound: CCCCC/C=C\C/C=C\CC([18F])CCSCCC(=O)O (stereo not shown)
2.00
